Population Membrane Permeable-Phenotype (%): recorded values
tested on: HEK-293T; test: Multiplex assay against HEK293T; format: toxicity, cell-based; conditions: human, 24 h, 10 µM, compound concentration 10 uM, replicate 1
Non-standard residues stand in square brackets, D forms with d. Residues, ends and D or L forms follow the SMILES beside them.
// note: answer is a bare numeric in %

The examples below pair each entry with its known result.
Cc1c(Cc2ccc3ccccc3n2)c2cc(F)ccc2n1CC(=O)O; 0
Cc1cc(O)c(-c2ccc([C@@H](C)CN(C)C)cc2)c2c1[nH]c(=O)c1sccc12; 1
CN1CCC(C(=O)c2cccc(NC(=O)c3c(F)cc(F)cc3F)n2)CC1; 0

Exam item: Query: Population Membrane Permeable-Phenotype (%); subject: Nc1nc(-c2ccco2)c2cnn(Cc3ccccc3F)c2n1
Marked response: 2

Exam item: Query: Population Membrane Permeable-Phenotype (%); subject: COc1cc(C(=O)N2CC[C@@H](O)[C@@H](N)C2)cc2nc(-c3cc4ccccc4n3CC3CC3)n(C)c12.Cl
Marked response: 0

Exam item: Query: Population Membrane Permeable-Phenotype (%); subject: O=C(NCCNCC(O)COc1ccc(O)cc1)N1CCOCC1.O=C(NCCNCC(O)COc1ccc(O)cc1)N1CCOCC1.O=C(O)/C=C/C(=O)O (stereo not given) [XAMOTEROL FUMARATE]
Marked response: 0

Exam item: Query: Population Membrane Permeable-Phenotype (%); subject: Nc1nc(CC(=O)Nc2ccc(CCNC[C@H](O)c3ccccc3)cc2)cs1
Marked response: 0

Exam item: Query: Population Membrane Permeable-Phenotype (%); subject: CCC(=O)OCC(=O)[C@@]1(OC(=O)CC)[C@@H](C)C[C@H]2[C@@H]3CCC4=CC(=O)C=C[C@]4(C)[C@@]3(Cl)[C@@H](O)C[C@@]21C [BECLOMETHASONE DIPROPIONATE]
Marked response: 0

Exam item: Query: Population Membrane Permeable-Phenotype (%); subject: CC(F)(F)CN1CCOc2c(nn(-c3ccccc3Cl)c2-c2ccc(Cl)cc2)C1=O
Marked response: 0

Exam item: Query: Population Membrane Permeable-Phenotype (%); subject: COc1cc2nc(N3CCN(C(=O)COc4c(OC)cccc4C(C)C)CC3)nc(N)c2cc1OC.Cl.Cl
Marked response: 2

Exam item: Query: Population Membrane Permeable-Phenotype (%); subject: CC(C)C[C@H](CO)Nc1nc(S[C@@H](C)c2ccccc2)nc2nc(N)sc12
Marked response: 0

Exam item: Query: Population Membrane Permeable-Phenotype (%); subject: COc1cc(OC2CCN(C(C)=O)CC2)ccc1C(=O)N1CCC(N2C(=O)OCc3ccccc32)CC1
Marked response: 0

Exam item: Query: Population Membrane Permeable-Phenotype (%); subject: CC(C)(C)c1ccc(CSc2cnn(C(C)(C)C)c(=O)c2Cl)cc1
Marked response: 0

Exam item: Query: Population Membrane Permeable-Phenotype (%); subject: CCn1c(-c2nc3cc(C(=O)N4CCCC(N)C4)ccc3n2C)cc2ccccc21.Cl (stereo not given)
Marked response: 1

Exam item: Query: Population Membrane Permeable-Phenotype (%); subject: Cc1cc(=O)n(C)c2cc(N3C(=O)CC[C@H](NS(=O)(=O)CC(C)C)[C@H]3c3ccc(Cl)cc3)ccc12
Marked response: 0

Exam item: Query: Population Membrane Permeable-Phenotype (%); subject: CN(C)C(=O)Cn1cc(-c2ccc(-c3nnc4ccccn34)cc2)cn1
Marked response: 0

Exam item: Query: Population Membrane Permeable-Phenotype (%); subject: O=C(Nc1cc(-c2ccccc2)nn1-c1ccccc1F)c1ccc([N+](=O)[O-])cc1
Marked response: 0

Exam item: Query: Population Membrane Permeable-Phenotype (%); subject: COc1cc2nc(N3CCN(C(=O)c4ccco4)CC3)nc(N)c2cc1OC.Cl [PRAZOSIN HYDROCHLORIDE]
Marked response: 0

Exam item: Query: Population Membrane Permeable-Phenotype (%); subject: CC(C)C[C@@H]1NC(=O)[C@@H](C(C)C)NC(=O)[C@@H]2CCCN2C(=O)[C@@H](CC(=O)O)NC(=O)[C@@H](Cc2c[nH]c3ccccc23)NC1=O [BQ-123] (cyclo(L[dW][dD]P[dV]))
Marked response: 0

Exam item: Query: Population Membrane Permeable-Phenotype (%); subject: Cn1cc(C(=O)OCC2CCN(CCNS(C)(=O)=O)CC2)c2ccccc21
Marked response: 1

Exam item: Query: Population Membrane Permeable-Phenotype (%); subject: CC(C)(O)C(=O)N1CCN(c2ccc(C(F)(F)F)c(C3=C(c4c[nH]c5ccccc45)C(=O)NC3=O)c2)CC1
Marked response: 1
